Values were extracted from PubChem BioAssay AID1159580.

What normalized growth was measured for each of the following?
Assay: chemical genetic growth profiling, strain panel (AID 1159580);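 also: tested at 20 µM; growth read once vehicle control cultures reached saturation at 30 °C; 1 = growth at the plate median or of vehicle wells; lower values mean less growth of the strain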
Conditions: S. cerevisiae deletion strains, growth OD, locus YLR357W, strain rsc2, active compounds read low
The campaign covered roughly 5,500 compounds. About 2,000 (36%) were called active. Another 18% or so got no clear call; they are omitted. The list shows a part of the results.
The response must contain the number and no unit.

Suppose we examine the compound `NCCc1ccc(O)c(O)c1` ; what normalized growth value has been reported?
0.985

Suppose we examine the compound `CCCN1C[C@H](CSC)C[C@@H]2c3cccc4[nH]cc(c34)C[C@H]21` ; what normalized growth value has been reported?
0.982

Suppose we examine the compound `ClC(Cl)=C(c1ccc(Cl)cc1)c1ccc(Cl)cc1` ; what normalized growth value has been reported?
1

Suppose we examine the compound `COc1cccc2c1cc([N+](=O)[O-])c1c(C(=O)O)cc3c(c12)OCO3` ; what normalized growth value has been reported?
1.01

Suppose we examine the compound CN(C)C(=O)Oc1cc(OC(=O)N(C)C)cc(C(O)CNC(C)(C)C)c1 (stereo not given) ; what normalized growth value has been reported?
1.02

Suppose we examine the compound `C/C(=C\C(=O)OCCCCCCCCC(=O)O)C[C@@H]1OC[C@H](C[C@@H]2O[C@H]2[C@@H](C)[C@H](C)O)[C@@H](O)[C@H]1O` ; what normalized growth value has been reported?
0.977

Suppose we examine the compound CC1(C)O[C@@H]2CC3C4C[C@H](F)C5=CC(=O)C=C[C@]5(C)[C@@]4(F)[C@@H](O)C[C@]3(C)[C@]2(C(=O)CO)O1 (stereo not given in full) ; what normalized growth value has been reported?
1.01

Suppose we examine the compound `O=c1cc(-c2cccc(O)c2)oc2ccc(O)cc12` ; what normalized growth value has been reported?
0.906

Suppose we examine the compound `O=c1cc(-c2ccc(O)cc2)oc2ccc(O)cc12` ; what normalized growth value has been reported?
0.982

Suppose we examine the compound `COc1cc([C@@H]2c3cc4c(cc3[C@H](O)[C@H]3COC(=O)[C@@H]23)OCO4)cc(OC)c1OC` ; what normalized growth value has been reported?
1.02

###

Experiment: chemical genetic growth profiling, strain panel (AID 1159580)
Details: S. cerevisiae deletion strains, growth OD, locus YPR111W, strain DBF20, active compounds read low
The whole screen tested about 5,500 compounds, of which about 2,000 (36%) were called active. About 18% were inconclusive and are not listed. The list shows a part of the results.
PARAMETER: normalized growth

Suppose we examine the compound Cc1cc(C(=O)N(c2ccccc2)C(C)C2CC2)c(Cl)cc1Cl (stereo not given) ; what normalized growth value has been reported?
0.97 (inactive)

Suppose we examine the compound `CN(C(=O)N(C)c1ccc(Cl)cc1C(=O)c1ccccc1Cl)c1ccc(Cl)cc1C(=O)c1ccccc1Cl` ; what normalized growth value has been reported?
0.874 (inactive)

Suppose we examine the compound `O=C1c2ccccc2O[C@@H](c2ccccc2)[C@@H]1NC1CCCCC1` ; what normalized growth value has been reported?
0.92 (inactive)

Suppose we examine the compound CCC(C)Cn1c(Sc2ncc([N+](=O)[O-])s2)n[nH]c1=O (stereo not given) ; what normalized growth value has been reported?
0.938 (inactive)

Suppose we examine the compound `Cc1nc(-c2ccc(C(F)(F)F)cn2)[nH]c(=O)c1Cl` ; what normalized growth value has been reported?
0.937 (inactive)

###

Experiment: chemical genetic growth profiling, strain panel (AID 1159580)
Conditions: S. cerevisiae deletion strains, growth OD, locus YHR205W, strain SCH9, active compounds read low
The campaign covered roughly 5,500 compounds. About 2,000 (36%) were called active. Roughly 18% stayed inconclusive and do not appear here. This is one part of the list.
PARAMETER: normalized growth
The response must contain the number and no unit.

Suppose we examine the compound CC(O)(CNCc1ccc(Cl)cc1)CSc1ccccc1Cl (stereo unspecified) ; what normalized growth value has been reported?
1.02

Suppose we examine the compound `N#CCCCCOc1ccc2c(=O)cc(-c3ccccc3)oc2c1` ; what normalized growth value has been reported?
0.976

Suppose we examine the compound `Clc1ccccc1N/N=C\Cc1nnnn1-c1ccccc1` ; what normalized growth value has been reported?
0.863

Suppose we examine the compound CCC(C)COC(=O)/C=C/c1ccc(N=Cc2ccc(OC)cc2)cc1 (stereo unspecified) ; what normalized growth value has been reported?
0.662

Suppose we examine the compound `Cc1ccc2c(c1)CCCN2CC(=O)N(c1ccccc1)C1CCCCC1` ; what normalized growth value has been reported?
0.991

Suppose we examine the compound `CC(C)(C)c1csc(NC(=O)c2ccc(Cl)cc2Cl)n1` ; what normalized growth value has been reported?
0.805

###

Test: chemical genetic growth profiling, strain panel (AID 1159580);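 also: tested at 20 µM; growth read once vehicle control cultures reached saturation at 30 °C; 1 = growth at the plate median or of vehicle wells; lower values mean less growth of the strain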
Conditions: S. cerevisiae deletion strains, growth OD, locus YOL147C, strain pex11
Screen size: about 5,500 compounds; about 2,000 (36%) were called active. Another 18% or so got no clear call; they are omitted. Rule as the data show it: active = normalized growth mostly below about 0.91 (no sharp cut-off); inconclusive = no clear call, values can overlap the other calls; inactive = mostly above about 0.92. Some of the results follow.
Use one of these outcomes when replying: active, inactive

Recorded test outcome, item CC1NC(=O)NC1=O (stereo not drawn)
inactive

Recorded test outcome, item C[C@@H]1CC[C@@]2(OC1)OC1C(O)C3C4CC[C@H]5C[C@H](O[C@@H]6O[C@H](CO)[C@H](O[C@@H]7O[C@H](CO)[C@@H](O)[C@H](O[C@@H]8OC[C@@H](O)[C@H](O)[C@H]8O)[C@H]7O[C@@H]7O[C@H](CO)[C@H](O)[C@H](O[C@@H]8O[C@H](CO)[C@@H](O)[C@H](O)[C@H]8O)[C@H]7O)[C@H](O)[C@H]6O)[C@H](O)C[C@]5(C)C4CC[C@]3(C)C1[C@@H]2C (stereo partly drawn)
active

Recorded test outcome, item CC(=O)O[C@H]1C[C@@]2(C)[C@H](c3ccoc3)OC(=O)[C@H]3O[C@]32[C@@]2(C)C1[C@]1(C)C(C[C@H]2OC(C)=O)C(C)(C)[C@H](OC(C)=O)C[C@@H]1OC(C)=O (stereo partly drawn)
inactive

Recorded test outcome, item CC(=O)O[C@@H]1CC2C(C)(C)CCC(=O)[C@]2(C)C2CC[C@@]3(C)[C@H](c4ccoc4)OC(=O)C4OC43[C@@]21C (stereo partly drawn)
inactive

Recorded test outcome, item CC(=O)OC1CC2C(C)(C)CCCC2(C)C2CCC3(C)C(c4ccoc4)OC(=O)C4OC43C12C (stereo not drawn)
inactive

Recorded test outcome, item `COc1cc2cc[n+]3cc4c(OC)c(OC)ccc4cc3c2cc1OC`
inactive

Recorded test outcome, item `NC(=O)CC[C@@H](N)C(=O)O`
inactive

Recorded test outcome, item `CN(C)CCC=C1c2ccccc2C=Cc2ccccc21`
inactive

Recorded test outcome, item CCOC(=O)C1C(C=C(C)C)C1(C)C (stereo not drawn)
inactive

Recorded test outcome, item C=CCc1ccccc1OCC(O)CNC(C)C (stereo not drawn)
inactive

Recorded test outcome, item CC(=O)O[C@@H]1CC2C(C)(C)C(=O)CC[C@]2(C)C2CC[C@@]3(C)[C@H](c4ccoc4)OC(=O)C4OC43[C@@]21C (stereo partly drawn)
inactive

Recorded test outcome, item CC(=O)O[C@H]1C[C@@H](O)C(C)(C)C2C[C@@H](OC(C)=O)[C@]3(C)C(CC[C@@]4(C)[C@H](c5ccoc5)OC(=O)C5OC543)[C@]21C (stereo partly drawn)
inactive

Recorded test outcome, item CC[N+]1(C)CCCC(OC(=O)C(O)(c2ccccc2)c2ccccc2)C1 (stereo not drawn)
inactive

###

Assay: chemical genetic growth profiling, strain panel (AID 1159580);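 also: tested at 20 µM; growth read once vehicle control cultures reached saturation at 30 °C; 1 = growth at the plate median or of vehicle wells; lower values mean less growth of the strain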
Conditions: S. cerevisiae deletion strains, growth OD, locus YJR043C, strain POL32
Hit rate of the full screen: of about 5,500 compounds, about 2,000 (36%) were called active. Roughly 18% stayed inconclusive and do not appear here. Cut-off read from the data, not from the text of the source: active = normalized growth mostly below about 0.91 (no sharp cut-off); inconclusive = no clear call, values can overlap the other calls; inactive = mostly above about 0.92. Some of the results follow.
Use one of these outcomes when replying: 1.0 (active), 0.0 (inactive)

Recorded test outcome, item `N#Cc1ccc([N+](=O)[O-])s1`
1.0

Recorded test outcome, item `O=c1oc2ccccc2c(O)c1Cc1c(O)c2ccccc2oc1=O`
0.0

Recorded test outcome, item `CCOC(=O)c1ccc2oc3ccc(O)cc3c(=O)c2c1`
0.0

Recorded test outcome, item `O=c1c2ccccc2oc2ccc(O)cc12`
0.0

Recorded test outcome, item `COc1ccc(-c2cc(=O)c3c(OC(C)=O)cc(OC(C)=O)cc3o2)cc1`
0.0

Recorded test outcome, item `CSc1ccc(C(=O)O)s1`
0.0

###

Test: chemical genetic growth profiling, strain panel (AID 1159580);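 also: tested at 20 µM; growth read once vehicle control cultures reached saturation at 30 °C; 1 = growth at the plate median or of vehicle wells; lower values mean less growth of the strain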
Conditions: S. cerevisiae deletion strains, growth OD, locus YLR039C, strain RIC1, active compounds read low
The campaign covered roughly 5,500 compounds. About 2,000 (36%) were called active. Inconclusive results (about 18%) are left out. The list shows a part of the results.
Bucketed by reported normalized growth, buckets being A = under 0.7, B = from 0.7 up to 1, C = 1 and over

For `O=C(N/N=C\c1ccccc1Cl)N/N=C\c1ccccc1Cl` , which normalized growth bin applies?
B

For `Cn1c(=O)c2[nH]c(C3CCCC3)nc2n(C)c1=O` , which normalized growth bin applies?
B

For `CC(=O)Nc1ccc(O)cc1` , which normalized growth bin applies?
B

For C=CCc1ccccc1OCC(O)CNC(C)C (centres undefined) , which normalized growth bin applies?
C

For C=C1C(N)CC2CC1C2(C)C (centres undefined) , which normalized growth bin applies?
C

For `Nc1ccc(C(=O)Oc2ccccc2)c(O)c1` , which normalized growth bin applies?
A

For `NC(=O)CC[C@@H](N)C(=O)O` , which normalized growth bin applies?
C

For `CC(=O)Nc1ccc(OC(=O)c2ccccc2O)cc1` , which normalized growth bin applies?
A

For `CCC/C=C/C=C/[C@@H]1C[C@@H](O)[C@@H](O)C(=O)[C@H]1C=O` , which normalized growth bin applies?
A

For `CNCCC=C1c2ccccc2CCc2ccccc21` , which normalized growth bin applies?
C

For `C[n+]1cc2c3c(ccc2c2ccc4cc5c(cc4c21)OCO5)OCO3` , which normalized growth bin applies?
A

For `CN(C)CCC=C1c2ccccc2CCc2ccccc21` , which normalized growth bin applies?
C

For CC(=O)C1COc2ccc(C)cc2C1=O (centres undefined) , which normalized growth bin applies?
A
